# Assay details: compound effects on multiple myeloma cell viability – MM1S, calcein-AM fluorescence, 48 h, basal, profiling panel (AID 1165);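 also: viability of MM1S multiple myeloma cells under basal unstimulated conditions; test concentration not given here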
# Condition label: higher = more signal
Assay metric: z-score
# answer = number (no unit)

input: Record request: z-score value, item [N-]=[N+]=Nc1ccccc1[C@H]1OC(c2ccc(OCCCO)cc2)=N[C@@]1(Cc1ccccc1)C(=O)NCC(O)CO (stereo partly specified)
output: -1.5

input: Record request: z-score value, item COc1ccc([Si](C)(C)[C@@H]2[C@@H](CC(=O)N3CCC[C@H]3CO)O[C@]3(C(=O)N(Cc4cccc(N5CCCCC5=O)c4)c4ccccc43)[C@H]2C)cc1
output: -2.81

input: Record request: z-score value, item COc1ccc([Si](C)(C)[C@@H]2[C@@H](CC(=O)N3Cc4ccccc4C[C@H]3CO)O[C@]3(C(=O)N(Cc4cccc(N5CCOC5=O)c4)c4ccccc43)[C@H]2C)cc1
output: -2.51

input: Record request: z-score value, item COCCOC(=O)N1C(=O)[C@@]2(c3cc(C#CCNC(N)=O)ccc31)[C@H](C(=O)Nc1nc3ccccc3s1)[C@H]1C(=O)O[C@H](c3ccccc3)[C@H](c3ccccc3)N1[C@@H]2c1ccccc1OCCO
output: 0.223

input: Record request: z-score value, item COc1ccc(C#Cc2ccc3c(c2)[C@]2(C(=O)N3)[C@H](C(=O)O)[C@H]3C(=O)O[C@H](c4ccccc4)[C@H](c4ccccc4)N3[C@@H]2c2ccccc2OCCO)cc1
output: -3.32

input: Record request: z-score value, item CC=CC(O)C1C=CC2C(=O)NC(=O)C2N1Nc1ccc(Cl)cc1Cl (stereo unspecified)
output: -0.866

---

# Assay details: resazurin metabolic signal in HepG2 cells – cell-based, resazurin fluorescence, 24 h, PK04 Diversity Set, profiling panel (AID 1172); also: test concentration not given here
# Condition label: HepG2 viability, higher = more signal
What z-score was measured for each of the following?
# answer = number (no unit)

input: Record request: z-score value, item COC(=O)[C@H](Cc1ccccc1)N1CC2=CCCC=C[C@@H]2[C@H]1[C@H](O)Cc1ccccc1
output: 0.272

input: Record request: z-score value, item C[C@]1(C(=O)O)c2ccccc2C(=O)N(Cc2cc(F)cc(C(F)(F)F)c2)[C@H]1c1ccc(CO)cc1
output: 0.646

input: Record request: z-score value, item COc1ccc(C(O)C2C=CC3C(=O)NC(=O)C3N2Nc2ccc(Cl)cc2Cl)c2ccccc12 (stereo not drawn)
output: -2.19

input: Record request: z-score value, item C=C(COC)/C(=C/C[C@@H](OC(C)=O)c1ccccc1OCCO)c1cnc2ccccc2c1
output: -1.15

input: Record request: z-score value, item CCOC(=O)C1=CC[C@@H](c2ccc(OC)cc2)N(S(=O)(=O)c2ccc(C)cc2)[C@H]1CC
output: 0.0292

input: Record request: z-score value, item C=CCOC(=O)[C@@H]1[C@H]2C(=O)O[C@H](c3ccccc3)[C@H](c3ccccc3)N2[C@H](c2ccc(OCCOC(=O)[C@H]3C[C@H]4C(=O)N[C@@H](CCCCN(C)C)C(=O)N4[C@H]3c3ccc(O)cc3)cc2)[C@@]12C(=O)Nc1ccc(I)cc12
output: -0.148

input: Record request: z-score value, item O=C(NCc1ccccc1)[C@@H]1c2ccccc2C(=O)N(Cc2cc(C(F)(F)F)cc(C(F)(F)F)c2)[C@H]1c1ccc(CO)cc1
output: -0.527

input: Record request: z-score value, item O=C(NCCN1CCOCC1)[C@@H]1c2ccccc2C(=O)N(Cc2ccc(OC(F)(F)F)cc2)[C@H]1c1ccc(CO)cc1
output: -0.129

input: Record request: z-score value, item Cc1ccc(S[C@]2(C(=O)NCC(F)(F)F)CC(=O)N(Cc3ccccc3C(F)(F)F)[C@@H]2c2ccc(CO)cc2)cc1
output: -0.12

input: Record request: z-score value, item CCOC(=O)C[C@H]1[C@H](OC(=O)Cc2ccc3c(c2)OCO3)[C@@H](NC(=O)c2ccc3ccccc3n2)c2cc(OCCCO)ccc2N1C(=O)Cc1ccc(OC)cc1
output: 1.14

input: Record request: z-score value, item CC(C)C(=C=CC[C@H](O)c1ccccc1OCCO)C[C@H](O)COCc1ccccc1
output: -0.0813

input: Record request: z-score value, item C=CCOC(=O)[C@H]1[C@@H]2C(=O)O[C@@H](c3ccccc3)[C@@H](c3ccccc3)N2[C@@H](c2ccc(OCCOC(=O)[C@@H]3C[C@@H]4C(=O)N[C@@H](CCCC[N+](C)(C)C)C(=O)N4[C@@H]3c3ccc(O)cc3)cc2)[C@]12C(=O)Nc1ccc(I)cc12
output: -0.0156

input: Record request: z-score value, item O=C(N1CCOCC1)[C@@]1(Cc2ccccc2)COC(c2ccc(OCCCO)cc2)=N1
output: -0.395

input: Record request: z-score value, item Cc1ccc(S[C@]2(C(=O)NCCCN(C)C)CC(=O)N(Cc3ccccc3C(F)(F)F)[C@@H]2c2ccc(CO)cc2I)cc1
output: 0.0689

input: Record request: z-score value, item [N-]=[N+]=Nc1ccccc1C[C@@]1(C(=O)NCc2ccccc2)N=C(c2ccc(OCCCO)cc2)O[C@@H]1c1ccccc1N=[N+]=[N-]
output: -0.664

input: Record request: z-score value, item [N-]=[N+]=Nc1ccccc1[C@H]1OC(c2ccc(OCCCO)cc2)=N[C@@]1(Cc1ccccc1)C(=O)NCC(O)CO (stereo partly drawn)
output: 1.21

input: Record request: z-score value, item CCCNC(=O)[C@@]1(c2ccc([N+](=O)[O-])cc2)CC(=O)N(C(C)C)[C@@H]1c1ccc(CO)cc1
output: 0.0889

input: Record request: z-score value, item CC(C)C[C@H]1NC(=O)C([C@@H](C)OCc2ccccc2)NC(=O)[C@@]23C(=O)N[C@@H](Cc4ccccc4)C2[C@H](C)[C@@]2(C)O[C@H]2C3/C=C/C/C=C\CNC1=O (stereo partly drawn)
output: -0.662

input: Record request: z-score value, item CCCC#C[Si](O[C@H](CC)c1cn(Cc2ccccc2)nn1)(C(C)C)C(C)C
output: -0.394

input: Record request: z-score value, item CN(C)CCCCNC(=O)[C@H]1C[C@H]2C(=O)N3CCC[C@H]3C(=O)N2[C@H]1c1cccc(OCCO)c1
output: -0.0329

input: Record request: z-score value, item O=C(NCc1ccccc1)[C@@H]1c2ccccc2C(=O)N(Cc2ccc(OC(F)(F)F)cc2)[C@H]1c1ccc(CO)cc1
output: 0.299

input: Record request: z-score value, item C=C(CCCC)C(=O)CC[C@H](OC(=O)c1ccccc1-c1ccccc1C(=O)O)c1ccc(OCCO)cc1
output: 0.359

input: Record request: z-score value, item COc1ccc(C(O)C2C=CC3C(=O)N(c4ccccc4)C(=O)C3N2Nc2ccc(C#N)cc2)cc1OCc1ccccc1 (stereo not drawn)
output: -1.74

---

What z-score was measured for each of the following?
# Assay details: growth of efflux-deficient E. coli DRC39 – strain DRC39, OD650, 24 h, E. coli filamentation inducers, primary screen (AID 1178);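 also: growth measured as culture turbidity by optical density at 650 nm; test concentration not given here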
# Condition label: E. coli DRC39 acrAB, higher = more signal, called active from +8 up or from −8 down
# answer = number (no unit)

input: Record request: z-score value, item [N-]=[N+]=Nc1ccccc1[C@@H]1OC(c2ccc(OCCCO)cc2)=N[C@]1(Cc1ccccc1)C(=O)NCCN1CCOCC1
output: 0.826

input: Record request: z-score value, item Cc1ccc(S[C@]2(C(=O)NCCCN(C)C)CC(=O)N(C3Cc4ccccc4C3)[C@@H]2c2ccc(CO)cc2I)cc1
output: -0.605

input: Record request: z-score value, item CC[C@@H]1C=C(C(=O)O)[C@H](c2ccc(OC)cc2)N1S(=O)(=O)c1ccc(C)cc1
output: -0.826

---

# Assay details: probe aCHRDL2 binding to arrayed compounds – biochemical, biotinylated probe, 635/667 nm fluorescence, primary screen (AID 1100)
# Condition label: small-molecule microarray, higher = more signal
What composite z-score was measured for each of the following?
# answer = number (no unit)

input: Record request: composite z-score value, item CC(C)N1C(=O)c2ccccc2[C@@H](C(=O)NCC(F)(F)F)[C@@H]1c1ccc(CO)cc1
output: 0.53

input: Record request: composite z-score value, item C=CCN1Cc2ccccc2[C@H]2OC(c3ccc(OCCCO)cc3)=N[C@@]2(CCS(=O)(=O)c2ccccc2)C1=O
output: 1.35

input: Record request: composite z-score value, item C=CCC(OC(C)=O)[C@@H]1[C@@H](N(Cc2cccc3ccccc23)C(=O)Cc2ccc(OC)cc2)c2cc(OCCCO)ccc2N1C(=O)Cc1ccc2ccccc2c1 (stereo partly specified)
output: 0.087

input: Record request: composite z-score value, item O=C1[C@H]2C=C(I)[C@H](C[C@@H]2c2ccccc2)[C@@]12CO2
output: -0.197

input: Record request: composite z-score value, item CO[C@H]1O[C@H](CO)[C@@H](OC(=O)Nc2ccccc2)[C@H](OC(=O)Nc2ccccc2)[C@H]1OC(=O)Nc1ccccc1
output: -0.0165

input: Record request: composite z-score value, item O=C1c2ccccc2[C@@]2(Cc3ccccc3N(Cc3ccccc3)C2=O)[C@H](c2ccc(CO)cc2)N1Cc1ccccc1Cl
output: 0.28

input: Record request: composite z-score value, item [N-]=[N+]=Nc1ccccc1[C@H]1OC(c2ccc(OCCCO)cc2)=N[C@@]1(Cc1ccccc1)C(=O)NCC(O)CO (stereo partly specified)
output: 0.981

input: Record request: composite z-score value, item COCCOC(=O)N1C(=O)[C@@]2(c3cc(C#CCC(C(=O)OC)C(=O)OC)ccc31)[C@H](C(=O)Nc1nc3ccccc3s1)[C@H]1C(=O)O[C@H](c3ccccc3)[C@H](c3ccccc3)N1[C@@H]2c1ccc(O)cc1
output: 0.309

input: Record request: composite z-score value, item [N-]=[N+]=Nc1ccccc1C[C@]1(C(=O)N2CCOCC2)N=C(c2ccc(OCCCO)cc2)O[C@H]1c1ccccc1N=[N+]=[N-]
output: 0.915

input: Record request: composite z-score value, item C=C(COC)C(=O)CC[C@@H](OC(C)=O)c1ccccc1OCCO
output: 0.313

input: Record request: composite z-score value, item Cc1ccc(S[C@]2(C(=O)NC3CC3)CC(=O)N(C(C)C)[C@@H]2c2ccc(CO)cc2I)cc1
output: 0.812

input: Record request: composite z-score value, item COCCOC(=O)N1C(=O)[C@@]2(c3ccccc31)[C@H](c1ccc(O)cc1)N1[C@H](c3ccccc3)[C@H](c3ccccc3)OC(=O)[C@H]1[C@@H]2C(=O)N1CCCCCCC1
output: 1.68

input: Record request: composite z-score value, item COc1ccc(C(O)C2C=CC3C(=O)N(C)C(=O)C3N2N(c2ccccc2)c2ccccc2)cc1 (stereo unspecified)
output: 0.93

input: Record request: composite z-score value, item COc1ccc([Si](C)(C)[C@H]2[C@H](CCO)O[C@@]3(C(=O)N(Cc4cccc(N(C=O)c5ccccc5)c4)c4ccccc43)[C@@H]2C)cc1
output: -0.777

input: Record request: composite z-score value, item CCN(CC)c1ccc(N2CC=CC34O[C@@H]5C=CCCOC(=O)C5[C@H]3C(=O)N(C(C)CO)[C@@H]4C2=O)cc1 (stereo partly specified)
output: 0.477

input: Record request: composite z-score value, item C=C(/C(=C/C[C@@H](OC(C)=O)c1cccc(OCCO)c1)c1cnc2ccccc2c1)C(C)C
output: 0.0363
